# PROCEDURE_DETAILS: Components of the Cytosolic LPS Sensing Pathway: Gene Identification via Genome-wide siRNA Screen
# MEASUREMENT_CONDITIONS: RAW264.7 macrophages, IL-1a HTRF, actives lie on both sides, screened at 100 nM (by protocol), cells primed 5 h with Pam3CSK4 first
Hit rate of the full screen: of about 53,000 sequences, about 3,700 (7%) were called active.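 Rule for the calls: active = gene knockdowns whose robust z-score for IL-1 alpha signal is at least 2 or at most -2, so actives lie on both sides; inactive = the rest.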 Many of the other results were omitted from the sample, so actives are more common in it than they were.
Outcome codes: true = active, false = inactive

INSERT INTO measurements (chain_sequence, answer_label) VALUES
  ('GGCUGUGUUGUCGAUUUCCTT against Nkain3', 'false'),
  ('GGGCAGGGAUGUUUAGAUCTT against Homer2', 'false'),
  ('GCUCUUUCUAGCCCUUCCCTT against Spry3', 'false'),
  ('GGAAGACUUUGGCUUUGAATT against Tfpt', 'false'),
  ('GGCAGGUGAAUGUGGUAGATT against Btbd17', 'false'),
  ('CCCUGUUGAUGAACAAAUCTT against Ddt', 'false'),
  ('GGCUCUUGAUACGAAUGUATT against Aadac', 'false'),
  ('GCUUUAGAACAGAGGGUUATT against Scd4', 'false'),
  ('GCCAUAUAAUUUGACAGAGTT against Tarm1', 'false'),
  ('CGCAGUGGACUCAUCUUGATT against Sestd1', 'false'),
  ('GCUGGAGUUUCAGUCAAGGTT against Ctso', 'false'),
  ('GGCCGAAUUGUGUCUUGGUTT against Dnmt3a', 'false'),
  ('GGAACUGUUUCUCUUUCCUTT against Rad9a', 'false'),
  ('CCGGAAAACAAAAUUGCUATT against Obp1a', 'false'),
  ('GGAAGAGCAUGAGUCGUUUTT against Scarb2', 'false'),
  ('GGCAGAUUCUAAAUAUAGCTT against Itga9', 'false'),
  ('GGAUGAUCUUGGUGUACACTT against Tmem91', 'true'),
  ('GGAUCGGUGAGAUUGUAGCTT against Phyhd1', 'false'),
  ('GCAGUAACUGUGUCAAAAUTT against Zan', 'false'),
  ('GCAGUCUUUUGGAUAGGUUTT against Ccni', 'false'),
  ('GGAACUAUUUUUUACCCAATT against Dclre1a', 'false'),
  ('GGGAUGCAUCAAAAUACAATT against Pdk3', 'true');

// data source = PubChem BioAssay AID1508600
